Source listed as patent US20210147367A1.

Biological target: MAGL (Homo sapiens, UniProt Q99685)
Construct: human prefrontal cortex or cell membrane fractions for human assays; from tissue
Sequence (Q99685 whole entry): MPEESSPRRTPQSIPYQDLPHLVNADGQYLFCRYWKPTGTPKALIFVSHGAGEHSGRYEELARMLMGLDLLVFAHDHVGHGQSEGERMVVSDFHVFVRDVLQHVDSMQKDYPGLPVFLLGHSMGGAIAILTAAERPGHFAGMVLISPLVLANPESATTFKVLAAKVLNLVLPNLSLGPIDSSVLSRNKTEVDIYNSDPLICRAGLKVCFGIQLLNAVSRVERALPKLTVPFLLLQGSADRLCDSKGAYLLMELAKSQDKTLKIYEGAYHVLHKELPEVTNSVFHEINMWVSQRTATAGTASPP
Experiment: In vitro competitive activity-based protein profiling
Type: biochemical
Conditions: protocol of example 14; read-out: MAGL IC50
value_type: IC50

Write down the reported IC50 of CC(C)(Oc1cc(C(F)(F)F)ccc1CN1CCN(C(=O)OC(C(F)(F)F)C(F)(F)F)CC1)C(=O)O , test system: MAGL (Homo sapiens, UniProt Q99685).
≤ 0.05 µM
